test: Drug level in rat brain at 10 mg/kg, ip after 1 hr; assay type: ADME, organism-based; design: dose 10 mg/kg, route intraperitoneal; settings: read-out: Drug uptake
VALUE_KIND: concentration at 1 h
A bare number is not enough; add the unit after it.

# return recorded concentration at 1 h for entry COc1cccc(C2CCN(C(=O)C3CC3)CC2)c1
540 nM

Specify concentration at 1 h for CCC(=O)NCC[C@@H]1CCc2ccc3c(c21)CCO3 and stop.
390 nM

Fill in reported concentration at 1 h for this entry: COc1cccc(N2CCC[C@H](NC(=O)C3CC3)C2)c1
180 nM

Supply recorded concentration at 1 h for COc1ccc2cccc(CCNC(C)=O)c2c1 here.
1030 nM

---

experiment: Displacement of [3H]melatonin from rat MT1 receptor expressed in CHO-Galpha16 cells; assay type: cell-based
Consider the following compounds and their measured log10 of Ki readings.
Values below are the log10 of the recorded Ki, with nM as the unit.

Answered cases to consult:
O=C(N[C@H]1CCCN(c2cccc(OC(F)F)c2)C1)C1CC1 | 2.61
COc1ccc(C2CCN(C(=O)C3CC3)CC2)cc1 | 3.04
COc1cccc(N2CCC[C@H](NC(=O)C3CC3)C2)c1 | 1.00
COc1ccc(C2CCN(C(C)=O)CC2)cc1 | 3.67
COc1cc(N2CCC[C@H](NC(=O)C3CC3)C2)ccc1Cl | 0.08
CCC(=O)NCC[C@@H]1CCc2ccc3c(c21)CCO3 | 0.30
COc1cccc(N2CC(NC(=O)C3CC3)Cc3ccccc32)c1 (racemic) | 1.88
COc1cccc(-c2cccc(NC(=O)C3CC3)n2)c1 | 3.18

Note down log10 of Ki recorded for CCC(=O)N1CCC(c2cccc(OC)c2)CC1
2.91

Annotate the compound COc1cccc(C2CCN(C(=O)C3CC3)CC2)c1 with its measured log10 of Ki.
1.60

Answer with reported log10 of Ki of COc1cccc(N2CCC[C@@H](NC(=O)C3CC3)C2)c1
3.00

Tell me log10 of Ki reported for COc1cccc(N2CCCC2CNC(=O)C2CC2)c1 (racemic)
1.32

---

assay: Drug level in rat plasma at 10 mg/kg, ip after 1 hr; assay type: ADME, organism-based; set-up: dose 10 mg/kg, route intraperitoneal; settings: read-out: Drug uptake
VALUE_KIND: concentration at 1 h (nM)
The response must be a number in nM with no trailing unit.

The examples below pair each entry with its known result.
CCC(=O)NCC[C@@H]1CCc2ccc3c(c21)CCO3 | 580
COc1cccc(C2CCN(C(=O)C3CC3)CC2)c1 | 390

Annotate the molecule COc1cccc(N2CCC[C@H](NC(=O)C3CC3)C2)c1 with its measured concentration at 1 h.
730

Input COc1ccc2cccc(CCNC(C)=O)c2c1 , output reported concentration at 1 h.
700

---

test system: Liver microsomes; experiment: Intrinsic clearance in human liver microsome at 1 uM by LC/MS analysis; type: ADME
VALUE_KIND: clearance (µL/min/mg)
Write down the numeric answer in µL/min/mg and omit the unit.

COc1cc(N2CCC[C@H](NC(=O)C3CC3)C2)ccc1Cl | 45
COc1cccc(N2CCC[C@H](NC(=O)C3CC3)C2)c1 | 28

Fill in clearance for record COc1ccc2cccc(CCNC(C)=O)c2c1 [AGOMELATINE]
361

Fill in reported clearance for this entry: O=C(N[C@H]1CCCN(c2cccc(OC(F)F)c2)C1)C1CC1
48

Give recorded clearance. COc1cccc(C2CCN(C(=O)C3CC3)CC2)c1
29

Write down clearance measured for item CCC(=O)NCC[C@@H]1CCc2ccc3c(c21)CCO3 [RAMELTEON]
47

---

Listed below: Ki values for each entry.
assay: Displacement of [3H]melatonin from rat MT1 receptor expressed in CHO-Galpha16 cells; format: cell-based
Write the value in nM as a bare number.

O=C(N[C@H]1CCCN(c2cccc(OC(F)(F)F)c2)C1)C1CC1 | 190
O=C(N[C@H]1CCCN(c2cccc(OCCO)c2)C1)C1CC1 | 610
COc1cc(N2CCC[C@@H](NC(=O)C3CC3)C2)ccc1Cl | 130
CCOc1cccc(C2CCN(C(=O)C3CC3)CC2)c1 | 5700

Consider now this further compound.
Return Ki for the following compound: COc1cccc(N2CCCC(NC(=O)C3CC3)C2)c1 (racemic)
15

---

system: CHO-Galpha16; test: Intrinsic activity at rat MT1 receptor expressed in CHO-Galpha16 cells assessed as Ca2+ mobilization after 20 mins by FLIPR assay relative to ramelteon; format: cell-based
VALUE_KIND: Intrinsic activity

Answered examples (10):
O=C(N[C@H]1CCCN(c2cccc(OCCO)c2)C1)C1CC1 | 3%
COc1cccc(C2CCN(C(=O)C(C)C)CC2)c1 | 87%
COc1cccc(C2CCN(C(=O)[C@H]3C[C@@H]3C)CC2)c1 | 19%
COc1cccc(N2CCC[C@H](NC(=O)C3CC3)C2)c1 | 77%
COc1cccc(C2CCN(C(=O)C3CCCC3)CC2)c1 | 67%
CCC(=O)NCC[C@@H]1CCc2ccc3c(c21)CCO3 [RAMELTEON] | 100%
CC(C)Oc1cccc(C2CCN(C(=O)C3CC3)CC2)c1 | 9%
COc1cccc(C2CCN(C(=O)C3CCC3)CC2)c1 | 52%
COc1cccc(N2CCCC2CNC(=O)C2CC2)c1 (racemic) | 89%
COc1cccc(C2CCN(C(=O)CC(C)C)CC2)c1 | 39%

Please report Intrinsic activity for the following compound: CCC(=O)N1CCC(c2cccc(OC)c2)CC1
31%

Please indicate Intrinsic activity recorded for Cc1cccc(C2CCN(C(=O)C3CC3)CC2)c1
0.4%

Assign Intrinsic activity to the following record: COc1cccc(C2CCN(C(=O)C3CCCCC3)CC2)c1
42%

---

tested on: Liver microsomes; experiment: Intrinsic clearance in rat liver microsome at 1 uM by LC/MS analysis; format: ADME
VALUE_KIND: log10 clearance (log10 of the value in µL/min/mg)
Log10 applied to clearance; unit prior to transform: µL/min/mg.

With Liver microsomes as the test system, provide measured log10 clearance for this molecule: COc1ccc2cccc(CCNC(C)=O)c2c1
2.16

Tell me log10 clearance of CCC(=O)NCC[C@@H]1CCc2ccc3c(c21)CCO3 when tested on Liver microsomes.
1.78

Fill in log10 clearance for COc1cc(N2CCC[C@H](NC(=O)C3CC3)C2)ccc1Cl tested with Liver microsomes.
2.30

For Liver microsomes, give log10 clearance of the listed molecule: O=C(N[C@H]1CCCN(c2cccc(OC(F)F)c2)C1)C1CC1
2.69

Please look at COc1cccc(C2CCN(C(=O)C3CC3)CC2)c1 and tell me its recorded log10 clearance on Liver microsomes.
1.96

Fill in: log10 clearance on Liver microsomes, entry COc1cccc(N2CCC[C@H](NC(=O)C3CC3)C2)c1
2.79

---

assay: Displacement of [3H]melatonin from rat MT1 receptor expressed in CHO-Galpha16 cells; type: cell-based
Measured Ki by item
Express your answer in nM, writing the number without its unit.

Use the examples below as a reference point.
COc1cccc(C2CCN(C(=O)[C@H]3C[C@@H]3C)CC2)c1 | 150
COc1cccc(C2CCN(C(=O)c3ccccc3)CC2)c1 | 650
COc1ccc2cccc(CCNC(C)=O)c2c1 | 1.2
COc1cccc(C2CCN(C(=O)C(C)C)CC2)c1 | 160
COc1cccc(C2CCN(C(=O)C3CCC3)CC2)c1 | 140

Proceeding to the next compound to report its Ki.
Tell us which Ki value is on record for COc1ccc2[nH]cc(CCNC(C)=O)c2c1
0.99

---

assay: Ratio of drug level in rat brain to plasma at 10 mg/kg, ip after 1 hr; assay type: ADME, organism-based; set-up: dose 10 mg/kg, route intraperitoneal
VALUE_KIND: Kp at 1 h
Answer as a number with no unit attached.

Example compounds with recorded Kp at 1 h:
COc1ccc2cccc(CCNC(C)=O)c2c1 [AGOMELATINE] | 1.5
COc1cccc(N2CCC[C@H](NC(=O)C3CC3)C2)c1 | 0.2
CCC(=O)NCC[C@@H]1CCc2ccc3c(c21)CCO3 [RAMELTEON] | 0.7

Consider the compound COc1cccc(C2CCN(C(=O)C3CC3)CC2)c1 . State its measured Kp at 1 h.
1.4

---

system: CHO-Galpha16; assay: Intrinsic activity at rat MT1 receptor expressed in CHO-Galpha16 cells assessed as Ca2+ mobilization after 20 mins by FLIPR assay relative to ramelteon; assay type: cell-based
Consider the reported Intrinsic activity of an entry and match it to a band in lo (below 20%), med (20% to below 60%), hi (60% or more)

Use these answered entries as a reference point.
COc1cccc(N2CC(NC(=O)C3CC3)Cc3ccccc32)c1 (racemic) | hi
COc1cccc(C2CCN(C(=O)C3CC3(C)C)CC2)c1 (centres undefined) | med
COc1cccc(C2CCN(C(=O)C3CC3)CC2)c1 | med
COc1ccc(C2CCN(C(C)=O)CC2)cc1 | med
CCC(CC)C(=O)N1CCC(c2cccc(OC)c2)CC1 | med

Lab note: which band did COc1ccc2[nH]cc(CCNC(C)=O)c2c1 land in?
hi

Band of COc1ccccc1C1CCN(C(=O)C2CC2)CC1 ?
lo

Class (by measured Intrinsic activity) for O=C(N[C@H]1CCCN(c2cccc(OC(F)F)c2)C1)C1CC1
med

Form: Item = COc1cccc(-c2cccc(NC(=O)C3CC3)n2)c1 ; Class = ?
lo

Band for the recorded Intrinsic activity of COc1cccc(N2CCC[C@@H](NC(=O)C3CC3)C2)c1 ?
med

Which category does the recorded Intrinsic activity put COc1cccc(C2CCN(C(=O)c3ccccc3)CC2)c1 in?
lo

Consider O=C(N[C@H]1CCCN(c2cccc(OC(F)(F)F)c2)C1)C1CC1 . To which Intrinsic activity class does it belong?
lo

Would you mind sorting COc1ccc2cccc(CCNC(C)=O)c2c1 into the appropriate category?
hi

Using the reported Intrinsic activity, which band applies to COc1cc(N2CCC[C@@H](NC(=O)C3CC3)C2)ccc1Cl ?
lo
